- Test system: CAKI-1 renal
- Assay Explanation: NCI-60 one-dose screen, 48 h (100 = growth as untreated, 0 = no growth, -100 = all killed)
- Measurement Conditions: 10 µM
Compounds without any hit were thinned out: in the full panel of roughly 83,000, 20% have a hit.
Assay Readout: growth (%)
Express it in %; write the number only.

* COc1ccc(Nc2cnc3cc(NS(=O)(=O)c4ccc(C)cc4)ccc3n2)cc1 | 61.5
* CN1CCc2c(sc3nc4n(-c5ccc(Cl)cc5)cnn4c(=O)c23)C1 | 97.4
* CCN(CC)CCCC(C)Nc1c2ccc(Cl)cc2nc2ccc(OC)cc12 (configuration not stated) | 1.55
* COCCn1cc(-c2nc(-c3cccnc3)cs2)c2cc(F)ccc21 | 103
* COc1ccc(/C=C2\CCCC3=C2NC(N)=NC3c2ccc(OC)cc2)cc1 (configuration not stated) | 90.1
* Cc1n[nH]c(C)c1N=Nc1cccc2c1C(=O)c1ccccc1C2=O | 73.6
* COc1ccc(-c2n[nH]nc2-c2cc(OC)c(OC)c(OC)c2)cc1 | 27.6
* NC(N)=N/N=C(\N=Nc1ccccc1)c1ccc(Cl)cc1 | 1.66

Give growth for the following compound: CC(C)c1cc(N=O)cc(C(C)C)c1O 95.2

Assign growth to the following record: CC[C@@H]1NC(=O)[C@H]([C@H](O)[C@H](C)C/C=C/c2ccc(CN3C(=O)CCCC3=O)cc2)N(C)C(=O)[C@H](C(C)C)N(C)C(=O)[C@H](CC(C)C)N(C)C(=O)[C@H](CC(C)C)N(C)C(=O)[C@@H](C)NC(=O)[C@H](C)NC(=O)[C@H](CC(C)C)N(C)C(=O)[C@H](C(C)C)NC(=O)[C@H](CC(C)C)N(C)C(=O)CN(C)C1=O 77.3

Name the recorded growth of the item O=C(COc1cccc(/C=C2\CSc3ccc(Cl)cc3C2=O)c1)c1ccc(Cl)cc1 in your answer. 61.2

Identify growth associated with the compound CC[C@H]1OC(=O)[C@H](C)[C@@H](O[C@H]2C[C@@](C)(OC)[C@@H](O)[C@H](C)O2)[C@H](C)[C@@H](O[C@@H]2O[C@H](C)C[C@H](N(C)C)[C@H]2O)[C@](C)(OC)C/C(C)=C2/O[C@@]1(C)C=C2C 21.7

Report measured growth; entry is Cc1cc(C)nc(NS(=O)(=O)c2ccc(Nc3nc4nc(NCc5ccccc5)nc(-c5ccc(O)cc5)c4c(=O)[nH]3)cc2)n1 33.1

Given CCOC(=O)CN(c1sc(C)c(C)c1C(=O)OCC)S(=O)(=O)c1ccc(C)cc1 , respond with its growth. 72.8

In one line, give reported growth of the entry COc1cc(C(=O)/C=C/c2c[nH]c3ccccc23)cc(OC)c1OC . 27.6

# return recorded growth for entry O=C(CSc1nccc(Nc2cccc3ccccc23)n1)c1ccc(Cl)cc1 60.3

Answer with reported growth of COc1ccc2c(c1)OC(N)=C(C#N)C2c1cc(OC)c(OC)c(OC)c1 (configuration not stated) 30.4

* * *

- Tested on: OVCAR-8 ovarian
- Assay Explanation: NCI-60 one-dose screen, 48 h
- Measurement Conditions: 10 µM
- Procedure: Growth inhibition of the OVCAR-8 human tumor cell line is measured as a screen for anti-cancer activity. Cells are grown in 96 well plates and exposed to the test compound for 48 hours. Compounds are tested at a single concentration, which is 10^-5 M for most compounds. The reported endpoint is percent growth (GI% or GIPRCNT), where numbers from 0 - 100% represent growth inhibition, and numbers from -100% - 0 represent cell death. For example, a value of 40 represents 60% growth inhibition. […]
This is part of a sample that, as a whole, favours compounds with a hit. Of some 83,000 tested, about 20% had one in any assay. The source made the active and inactive calls. Rule for the calls: active = growth percent below 10; inactive = the rest.
Give one outcome, nothing more. List: active, inactive

Example results:
• N#CCc1csc(Cc2ccccc2)n1 = inactive
• COC(=O)C1OC1c1cc([N+](=O)[O-])ccc1OC (configuration not stated) = inactive
• Cc1c2cnccc2c(C)c2c1c1cc(O)ccc1n2C(C)C = active
• NC1=NC(c2ccccc2)C2=C(N1)/C(=C/c1ccccc1)CCC2 (configuration not stated) = inactive
• C[C@@H](C[C@H](CCO)c1ccccc1)c1ccc2ccccc2c1 = active

Record request — test call for C/C(=C/CCC(C)[C@@H]1CC[C@]2(C)C3=C(CC[C@@]12C)[C@@]1(C)CCC(=O)C(C)(C)[C@@H]1CC3)C(=O)O (some centres not stated) active

So what was the verdict on CC1OC2CC(=O)OC2C2=C1C(=O)c1c(O)c3c(c(O)c1C2=O)C1CC(O)C3(O)C(C)O1 (configuration not stated) in this test? active

Please indicate how the test categorized Nc1ccn(Cc2nnc(CCC(=O)c3nc4ccccc4[nH]3)o2)c(=O)n1 . inactive

Check the results log: what was the call for Cc1ccc(C(=O)/C=C/c2ccccc2)s1 ? inactive

Hi team, can someone confirm the assay call for CCOC(=O)c1cc(C(=O)c2ccc(Cl)cc2)n2ccc(-c3cc[n+](CC(=O)c4ccc(OC)cc4)cc3)cc12 ? inactive
